The measured values listed here are drawn from PubChem BioAssay.

assay: basal RPMI8226 viability, no added stimulus, profiling panel, cell-based, calcein-AM fluorescence, 48 h, PK04 Diversity Set (AID 1166); conditions: RPMI8226 myeloma viability, higher = more signal;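 also: cells grown under basal conditions without added stimulus; test concentration not given here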
Entries and their measured z-score follow.
experimental.readout: z-score

COCCOC(=O)N1C(=O)[C@@]2(c3cc(C#CCCO)ccc31)[C@H](C(N)=O)[C@H]1C(=O)O[C@H](c3ccccc3)[C@H](c3ccccc3)N1[C@@H]2c1ccc(O)cc1 ... -1.2
CC1(C)C2C=C(C(O)C3C=CC4C(=O)NC(=O)C4N3Nc3ccc(Cl)cc3Cl)C[C@@H]1C2 (stereo partly drawn) ... -4.1
COc1ccc(-c2cc3c(c(-c4ccc(Oc5ccccc5)cc4)n2)[Si](C(C)C)(C(C)C)OC3)cn1 ... -1.75
CC1CC/C=C\[C@H]2OC34C=CCN(C(C)(C)C)C(=O)[C@H]3N(CCO)C(=O)[C@@H]4C2C(=O)O1 (stereo partly drawn) ... -0.197
C[N+](C)(C)CCCCNC(=O)[C@H]1C[C@H]2C(=O)N3CCC[C@H]3C(=O)N2[C@H]1c1cccc(OCCO)c1 ... 0.157
CC(=O)NCCCC[C@@H]1NC(=O)[C@@H]2C[C@H](C(=O)NCCCCCNC(=O)CS)[C@H](c3cccc(OCCO)c3)N2C1=O ... 0.403
CC(C)NC(=O)[C@@H]1c2ccccc2C(=O)N(C2Cc3ccccc3C2)[C@H]1c1ccc(CO)cc1 ... 0.982
CCC[C@@H]1C[C@@]1(CCC)[C@@H](NS(=O)(=O)c1cccc2cccnc12)c1ccc(Cl)cc1 ... -0.99
O=C(NC1CC1)[C@@H]1c2ccccc2C(=O)N(Cc2ccccc2Cl)[C@H]1c1ccc(CO)cc1 ... 0.97
NC(=O)N1C(=O)C2C(C1=O)C1C=C(c3ccc(CO)cc3)C2C(c2cccs2)N1Cc1cccc(OC(F)(F)F)c1 (stereo not drawn) ... -2.08
C=CCOC(=O)[C@H]1[C@@H]2C(=O)O[C@@H](c3ccccc3)[C@@H](c3ccccc3)N2[C@@H](c2ccc(OCCOC(=O)[C@@H]3C[C@@H]4C(=O)N[C@@H](CCCCNC(C)=O)C(=O)N4[C@@H]3c3ccc(O)cc3)cc2)[C@]12C(=O)Nc1ccccc12 ... -0.133
COC(=O)C(CC#Cc1ccc2c(c1)[C@]1(C(=O)N2)[C@H](c2ccc(OCCO)cc2)N2[C@H](c3ccccc3)[C@H](c3ccccc3)OC(=O)[C@H]2[C@@H]1C(=O)Nc1nc2ccccc2s1)C(=O)OC ... -2.73
COCCOC(=O)N1C(=O)[C@@]2(c3cc(C#CCCO)ccc31)[C@H](C(=O)N1CCCCCCC1)[C@H]1C(=O)O[C@H](c3ccccc3)[C@H](c3ccccc3)N1[C@@H]2c1ccc(OCCO)cc1 ... -1.54

----------
biological target: Left-right determination factor 2 (Homo sapiens) (UniProt O00292); experiment: LEFTY2 binders on small-molecule microarrays, primary screen, biochemical, small-molecule microarray, 635 nm fluorescence scan (AID 1110); conditions: LEFTY2 binding, higher = more signal
Sequence (O00292 whole entry, looked up): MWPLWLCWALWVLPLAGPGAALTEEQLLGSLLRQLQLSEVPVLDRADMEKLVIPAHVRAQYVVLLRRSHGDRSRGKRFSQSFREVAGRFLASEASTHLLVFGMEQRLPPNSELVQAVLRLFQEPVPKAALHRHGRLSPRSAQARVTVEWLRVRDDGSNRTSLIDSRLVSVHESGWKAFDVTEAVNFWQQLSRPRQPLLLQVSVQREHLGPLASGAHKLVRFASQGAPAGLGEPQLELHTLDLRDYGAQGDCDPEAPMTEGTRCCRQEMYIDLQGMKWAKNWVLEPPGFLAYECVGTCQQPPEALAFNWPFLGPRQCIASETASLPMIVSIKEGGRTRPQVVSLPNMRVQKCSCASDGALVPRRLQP
experimental.readout: composite z-score

O=C1C[C@@](C(=O)NCCN2CCOCC2)(c2ccc([N+](=O)[O-])cc2)[C@@H](c2ccc(CO)cc2)N1CC12CC3CC(CC(C3)C1)C2 ... 0.745
CCCCN1CC=CC23O[C@@H]4C=CCCOC(=O)C4[C@H]2C(=O)N(CCCCCCO)[C@@H]3C1=O (stereo partly drawn) ... -1.11
COc1cc2c(cc1OC)CN(C(=O)[C@H]1[C@@H]3C(=O)O[C@@H](c4ccccc4)[C@@H](c4ccccc4)N3[C@@H](c3ccc(O)cc3)[C@]13C(=O)Nc1ccc(C#CCCO)cc13)CC2 ... -0.0265

----------
target: Luciferin 4-monooxygenase (Photinus pyralis) (UniProt P08659); experiment: firefly luciferase enzyme inhibitors, primary screen, biochemical, luminescence, purified enzyme, 2006 set (AID 1141); conditions: SteadyGlo luminescence, 30 min, higher = more signal, called active from +8 up or from −8 down;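 also: cell-free assay with purified firefly luciferase at 100 ng per well in PBS; test concentration not given here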
Sequence (P08659 whole entry, looked up): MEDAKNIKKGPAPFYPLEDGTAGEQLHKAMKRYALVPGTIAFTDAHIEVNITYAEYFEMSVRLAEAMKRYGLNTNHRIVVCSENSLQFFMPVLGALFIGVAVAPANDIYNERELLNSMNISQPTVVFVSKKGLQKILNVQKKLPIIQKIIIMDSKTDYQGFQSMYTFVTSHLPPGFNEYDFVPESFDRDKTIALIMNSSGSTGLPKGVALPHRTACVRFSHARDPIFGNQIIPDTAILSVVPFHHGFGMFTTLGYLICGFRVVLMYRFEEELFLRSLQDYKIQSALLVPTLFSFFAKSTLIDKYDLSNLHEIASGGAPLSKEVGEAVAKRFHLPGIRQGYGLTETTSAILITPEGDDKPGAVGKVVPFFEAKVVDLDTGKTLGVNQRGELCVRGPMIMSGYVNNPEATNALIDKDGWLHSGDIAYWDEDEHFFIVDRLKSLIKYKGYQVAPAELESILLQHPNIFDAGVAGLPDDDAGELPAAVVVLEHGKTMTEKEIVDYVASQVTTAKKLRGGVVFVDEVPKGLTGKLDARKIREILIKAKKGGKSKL
Entries and their measured z-score follow.
experimental.readout: z-score

COC(=O)[C@@]1(Cc2ccccc2)[C@H]2c3cc(C(=O)N(C)C)n(Cc4ccsc4Br)c3C[C@H]2CN1C(=O)c1ccccc1 ... 0.78
COc1ccc(C#Cc2ccc3c(c2)[C@]2(C(=O)N3)[C@H](C(=O)Nc3nc4ccccc4s3)[C@H]3C(=O)O[C@H](c4ccccc4)[C@H](c4ccccc4)N3[C@@H]2c2ccc(O)cc2)cc1 ... 0.0616
COc1ccc([C@H]2OC[C@@H]3C[C@@H](Cc4ccccc4)C(=O)N32)cc1 ... 0.0077
C=C(COC)/C(=C/C[C@H](OC(C)=O)c1ccc(CO)o1)c1cc(C(=O)OC)ccc1OC ... -0.769

----------
assay: E. coli acrAB mutant growth effects, primary screen, E. coli filamentation inducers, strain DRC39, OD650, 24 h (AID 1178); conditions: higher = more signal, called active from +8 up or from −8 down;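 also: growth measured as culture turbidity by optical density at 650 nm; test concentration not given here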
experimental.readout: z-score

O=C1NC(=O)C2C1C=CC(C(O)c1cccs1)N2Nc1ccc(Cl)cc1Cl (stereo not drawn) ... 0.0751
COc1ccc(C(=O)Nc2ccc(CN3C(=O)[C@]4(O[C@H](CCO)[C@@H]([Si](C)(C)c5ccc(OC)cc5)[C@@H]4C)c4ccccc43)cc2)cc1 ... 0.65
CN(C)C(=O)[C@]1(Cc2ccccc2N=[N+]=[N-])N=C(c2ccc(OCCCO)cc2)O[C@@H]1c1ccccc1N=[N+]=[N-] ... 1.01
COc1ccc(CCNC(=O)[C@@]2(C)c3ccccc3C(=O)N(C(C)C)[C@H]2c2ccc(CO)cc2)cc1 ... -0.166
[N-]=[N+]=NCc1ccccc1C[C@]1(C(=O)N2CCCCC2)N=C(c2ccc(OCCCO)cc2)O[C@H]1c1ccccc1N=[N+]=[N-] ... 0.173
Cc1ccc([C@@H]2C[C@@H](Sc3ccccc3)[C@H](C(=O)O)CN2S(=O)(=O)c2ccc(C)cc2)cc1 ... -0.634
CCC(CC)C(O)C1C=CC2C(=O)NC(=O)C2N1Nc1ccc(Cl)cc1Cl (stereo not drawn) ... -0.682
CCC(CC)C(O)C1C=CC2C(=O)NC(=O)C2N1Nc1ccccn1 (stereo not drawn) ... -0.485

----------
assay: S. cerevisiae RM11-1a growth modifiers, primary screen, strain RM11-1a, OD600, basal, 24 h (AID 1177); conditions: OD600, 24 h, higher = more signal, called active from +8 up or from −8 down;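 also: cultures grown under basal conditions with no added stressor; test concentration not given here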
Entries and their measured z-score follow.
experimental.readout: z-score

CC1(C)[C@@H]2CC(C(O)C3C=CC4C(=O)N(Cc5ccccc5)C(=O)C4N3n3cnnc3)=C[C@H]1C2 (some centres undefined) ... 1.29
CC(C)C(O)C1C=CC2C(=O)NC(=O)C2N1Nc1ccc(Cl)cc1Cl (centres undefined) ... 1.05
[N-]=[N+]=Nc1ccccc1[C@H]1OC(c2ccc(OCCCO)cc2)=N[C@@]1(CCS(=O)(=O)c1ccccc1)C(N)=O ... -0.167
O=C1C[C@@](C(=O)NCC(F)(F)F)(c2ccc([N+](=O)[O-])cc2)[C@@H](c2ccc(CO)cc2I)N1C1CCCCC1 ... 0.195

----------
molecular target: Torsin-1A-interacting protein 2 (Homo sapiens) (UniProt Q8NFQ8); assay: LULL1 binders on small-molecule microarray, primary screen, cell lysate, human LULL1 lysate, 635/667 nm fluorescence (AID 1092); conditions: hLULL1 lysate binding, 635 nm fluorescence, higher = more signal;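 also: probe is lysate of COS7 cells overexpressing human LULL1; score merges per-feature 667 nm fluorescence with signal-to-noise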
Sequence (Q8NFQ8 whole entry, looked up): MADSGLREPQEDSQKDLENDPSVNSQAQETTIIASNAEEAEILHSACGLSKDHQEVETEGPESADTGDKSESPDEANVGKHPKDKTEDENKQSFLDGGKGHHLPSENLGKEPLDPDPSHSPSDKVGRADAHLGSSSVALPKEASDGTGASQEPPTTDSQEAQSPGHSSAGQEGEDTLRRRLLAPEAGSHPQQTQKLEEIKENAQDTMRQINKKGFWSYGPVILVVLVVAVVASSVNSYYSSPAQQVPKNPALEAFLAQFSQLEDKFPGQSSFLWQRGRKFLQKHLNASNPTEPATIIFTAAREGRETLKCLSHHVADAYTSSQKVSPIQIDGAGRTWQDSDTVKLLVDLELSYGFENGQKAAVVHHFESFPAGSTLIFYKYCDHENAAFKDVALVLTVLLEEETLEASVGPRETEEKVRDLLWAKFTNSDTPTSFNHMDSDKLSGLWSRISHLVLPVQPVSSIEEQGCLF
Give class 1 when the value for composite z-score is at least 3. Give class 0 when it is less.

C=C(C)[C@@H]1CC=C(C(O)C2C=CC3C(=O)N(c4ccccc4)C(=O)C3N2Nc2ccccc2)CC1 (stereo partly specified) ... class 1
COCCOC(=O)N1C(=O)[C@@]2(c3cc(C#CCNC(N)=O)ccc31)[C@H](C(=O)Nc1nc3ccccc3s1)[C@H]1C(=O)O[C@H](c3ccccc3)[C@H](c3ccccc3)N1[C@@H]2c1ccc(OCCO)cc1 ... class 0
CO[C@H]1O[C@H](CO)[C@@H](OC(=O)Nc2ccc(Oc3ccccc3)cc2)[C@H](OC(=O)Nc2ccc3c(c2)OCO3)[C@H]1OC(=O)Nc1ccc2c(c1)OCO2 ... class 0
COCCOC(=O)N1C(=O)[C@@]2(c3cc(C#CCCO)ccc31)[C@H](C(N)=O)[C@H]1C(=O)O[C@H](c3ccccc3)[C@H](c3ccccc3)N1[C@@H]2c1ccc(O)cc1 ... class 0
COC(=O)[C@H](Cc1ccccc1)N1CC2=C[C@@H](C3CC3)n3c(=O)n(C)c(=O)n3[C@H]2[C@@H]1[C@@H](O)Cc1ccccc1 ... class 0
CN(C)CCCC[C@@H]1NC(=O)[C@@H]2C[C@H](C(=O)NCCCCCCN)[C@H](c3cccc(OCCO)c3)N2C1=O ... class 1

----------
target: Carbonic anhydrase 2 (Homo sapiens); test: CAII small-molecule binders, profiling panel, biochemical, small-molecule microarray, Alexa647-labelled CAII (AID 1122); settings: CAII-A647 binding fluorescence, higher = more signal
Give YES when the value for composite z-score is at least 0.4. Give NO when it is less.

COCCCNC(=O)[C@]1(CCC(=O)OC(C)(C)C)N=C(c2ccc(OCCCO)cc2)O[C@@H]1c1ccccc1CN=[N+]=[N-] ... YES
COc1cc(NN2C(C(O)c3ccco3)C=CC3C(=O)N(c4ccccc4)C(=O)C32)cc(OC)c1OC (configuration not stated) ... YES
CC(C)C(=C=CC[C@H](O)c1ccc(OCCO)cc1)CCO ... NO
COCCOC(=O)N1C(=O)[C@@]2(c3cc(C#Cc4ccc(OC)cc4)ccc31)[C@H](c1ccc(OCCO)cc1)N1[C@H](c3ccccc3)[C@H](c3ccccc3)OC(=O)[C@H]1[C@@H]2C(=O)N1CCN(c2ncccn2)CC1 ... NO
NC(=O)NCC#Cc1ccc2c(c1)[C@]1(C(=O)N2)[C@H](c2ccc(O)cc2)N2[C@H](c3ccccc3)[C@H](c3ccccc3)OC(=O)[C@H]2[C@@H]1C(=O)O ... NO
O=C1O[C@@H](c2ccccc2)[C@@H](c2ccccc2)N2[C@@H](c3ccccc3OCCO)[C@]3(C(=O)Nc4ccccc43)[C@@H](C(=O)Nc3nc4ccccc4s3)[C@H]12 ... YES
COc1ccc(CCNC(=O)[C@@]2(C)c3ccccc3C(=O)N(C(C)C)[C@H]2c2ccc(CO)cc2)cc1 ... YES
